# assay-remarks: yeast display, Sf9 membrane polyspecificity reagent, FACS + sequencing; frameworks hold sequencing errors

>  <construct-sequence>
QVQLGESGGGLVQAGGSLRLSCAASGSTFKLYAMGWYRQAPGKERELVAAIRGSGGRTYYADSVKGRFTISRDNAKNTVYLQMNSLKPEDTAVYYCAAAYIGVWKYDSWGQGTQVTVSS

>  <polyreactivity (PSR sort gate)>
high polyreactivity

$$$$
>  <construct-sequence>
QVQLVESGGGLFQARGSLRLSCAASGLTFWYYDMGWYRQAPGKERELFAAINSGGSTYYADSEKGRFTISRDNAKNTVYLEINRLKPEDTAVYYCNKDFSKTWRYASYYYWGQGTQVTVSS

>  <polyreactivity (PSR sort gate)>
low polyreactivity

$$$$
>  <construct-sequence>
QVQLVESGGGLVQAGGSLRLSCAASGLIFGRYAMGWYRPAPGKERELVAAITNSDGDTYYADSVKGRFTISRDNAKNTVYLQMNSLKPEDTAVYYCNADDALRQTSDYNYWGQGTQVTVSS

>  <polyreactivity (PSR sort gate)>
low polyreactivity

$$$$
>  <construct-sequence>
QVQLVESGGGLVQAGGSLRLSCAASGSTFVPYVMGWYRQAPGKERELVAAISKSGTSTYYADSVKGRFTISRDNAKNTDYLQMNSLKPEDTAVYYCAAVARRQVPYDYWGQGTQVTVSS

>  <polyreactivity (PSR sort gate)>
high polyreactivity

$$$$
>  <construct-sequence>
QVQLVESGGGLVQAGGSLRLSCAASGRIFGWYAMGWYRQAPGKERELVAAINRGGSTNYADSVKGRFTISRDNAKNTVYLQMNSLSPEDTGVYYCAVRGVHYTAVTNIIYGYGYWGQGTQVTVSS

>  <polyreactivity (PSR sort gate)>
high polyreactivity

$$$$
>  <construct-sequence>
QVQLVESGGGLVQAGGSLRLSCAASGLIFSYYVMGWYRPAPGKERELVAAINRSGGSTYYADSVKGRFTISRDNAKNTVYLQMNSLKPEDTAVYYCAAEKLGTNFEYWGQGTQVTVSS

>  <polyreactivity (PSR sort gate)>
high polyreactivity

$$$$
>  <construct-sequence>
QVQLVESGGGLVQAGGSLRLSCAASGFIFSYYAMGWYRQAPGKERELVAAISKTGGNTFYADSVKGRFTISRDNAKNTVYLQMNSLKPEDTGVYYCNALRGDWRDMGYWGQGTQVTVSS

>  <polyreactivity (PSR sort gate)>
high polyreactivity

$$$$
>  <construct-sequence>
QVQLVESGGGLVQAGGSLRLSCAASGIIFNVNAMGWYRQAPGKERELVASINSGSTYYADSVKGRFTISRDNAKNTVYLQMNSLKPEDTAVYYCATGARSPPWGRSKKRTYYYWGQGTQVTVSS

>  <polyreactivity (PSR sort gate)>
high polyreactivity

$$$$
>  <construct-sequence>
QVQLVESGGGLVQAGGSLRLSCAASGITFNHYTMGWYRQAPGKERELVAAISSRGSTTYYADSVKGRFTISRDNAKNTVYLQMNSLKPEDTAVYYCAARYPTYYRPRYRGRPGYDYWGKGTQVTVSS

>  <polyreactivity (PSR sort gate)>
high polyreactivity

$$$$
>  <construct-sequence>
QDKLVESGGGLVQAGGSLRLSCAASGSILGGYAMGWNRPAPGKAREFVAAISRRGASTFYADSVKGRFTISRDNAKNTVYLQMNCLKPEDTAVYYCNARAYGRIDGHSATFGYWGQGTQVTVSS

>  <polyreactivity (PSR sort gate)>
high polyreactivity

$$$$
>  <construct-sequence>
QVQLVESGGGLVQAGGSLRLSCAASGRTFYVNTMGWYRQATGKETELVARITRGGSTYYADSVKGRFTISRDNAKNTVYLQMNSLKPEDTAVYYCATDHFPVYSTHVIYEFDYWGQGTQVTVSS

>  <polyreactivity (PSR sort gate)>
low polyreactivity

$$$$
>  <construct-sequence>
QVQLVESGGGLVQAGGSLRLSCAASGRTFPAYAMGWYRQAPGKERELVAAISYSGGRTRYADSVKGRFTISRDNAKNTVYLQMNSLKPEDTAVYDCNRVIPTQSLRDYYWGQGTQVTVSS

>  <polyreactivity (PSR sort gate)>
high polyreactivity

$$$$
>  <construct-sequence>
QVQLVDSGGGLVQAGGILRLSCAASGSTFRYYAMGWYRQAPGKERELVAAITKNGGSTYYADSVKGRFTISRDNAKNTVYLQMNSLKPEDTAVYYCAVQFSYSGWYYVSYYYWGQGTQVTVSS

>  <polyreactivity (PSR sort gate)>
high polyreactivity

$$$$
>  <construct-sequence>
QVHLVESGGGIVQAGGILRLSCAASGNTFYENVMGWYRQTPGKEREFVAAITYIGGNTYYADSVKGRFTISRDNAKNTVYLQMNSLKPEDTAVYYCAAEWDWPTYYTYYWYFSYDYWGQGTQVTVSS

>  <polyreactivity (PSR sort gate)>
low polyreactivity

$$$$
>  <construct-sequence>
QVQLVESGGGLVQAGGSLRLSCAASGSIFCDNAMGWYRQEPGKERELVAAISIVGSTSYADSVKGRFTISRDNANNTVYLQMNSLKPEDTAVYYCAAENVRSDTGFDYWGQGTQVTVSS

>  <polyreactivity (PSR sort gate)>
low polyreactivity

$$$$
>  <construct-sequence>
QVQLVESGGGLVQAGGSLRLSCAASRSIFSQYSRGCYRQAPGKERELVATITWRGGSNTNYADSVKGRFTISRDNAKNTVYLQMNSLKPEDTAVYYCNAAFPYHYRFDYWGQGTQVTVSS

>  <polyreactivity (PSR sort gate)>
low polyreactivity

$$$$
>  <construct-sequence>
QVQLVESGGRLVQAGGSLRLSCAASGRTSVVHAMGWYRTAPGKERELVAAITSGGSTHYPDSVKGRFTISRDNAKNTVYLQMNSLKPEDTAVYYCNARDRRRTNLQDYWGQGTQVTVSS

>  <polyreactivity (PSR sort gate)>
low polyreactivity

$$$$
>  <construct-sequence>
QVQLVESGGGLVQAGGSLRLSCAASGFTFRDYAMGWYRQAPGKERELVAAITRGGSTNYADSVKGRFTISRDNAKNTVYLQMNSLKPEDTAVYYCAATPSWRWHVFAEFNSWGQGTQVTVSS

>  <polyreactivity (PSR sort gate)>
high polyreactivity

$$$$
>  <construct-sequence>
QVQLVESGGGLVQAGGSLRLSCAASGITFYDYAMGWYRQAPGKEREFFARITASGARTYYADSVKGRFTISRDNAKNTVYLQMNSLKPEDTAVYYCAVRGGRPSRRHYDKYDYWGQGTQVTVSS

>  <polyreactivity (PSR sort gate)>
low polyreactivity

$$$$
>  <construct-sequence>
QVQLVESGGGLVQAGGSLRLSCAASGRIFTTYAMGWYRQAPGKERELVAAISRSGGSTYYADSVKGRFTISRDNAKNSVYLQMNSLKPEDTAVYYCAAVPTSNSFRSSFYYWGQGTQVTVSS

>  <polyreactivity (PSR sort gate)>
high polyreactivity

$$$$
>  <construct-sequence>
QVQLVESGGGLVQAGRSLRLSCAASGINFAGYAKGWYRQAPGKERELVAAISRGGSTYYADSVKGRFTISRDNAKNTVYFQMNSLIPEDTAVYYCNTYYQQGYFTYTGWNYNYWGQGTQVTVST

>  <polyreactivity (PSR sort gate)>
high polyreactivity

$$$$

###

# assay-remarks: yeast display, Sf9 membrane polyspecificity reagent, FACS + sequencing; frameworks hold sequencing errors

>  <construct-sequence>
QVQLVESGGGLVQAGGSLRLSCAASGFIITSNAMGWYRQAPGKERELVAAITWSGGRTYYADSVKGRFTISRDNAKNTVYLQMNSLKPEDTAVYYCAAGYYKGFTLVRVIFDYWGHGTQVTVSS

>  <polyreactivity (PSR sort gate)>
low polyreactivity

$$$$
>  <construct-sequence>
QVQLVESGGGLVQAGGSIRISCAPSGRTFNYYAIGWNRPAPAQEREFVAAITKSCGSTYYADSVKGRFTISRDNAKYTVYLQMNSVKPEDTAVYYCATTHRYRVVYWRQGTQVTVSS

>  <polyreactivity (PSR sort gate)>
high polyreactivity

$$$$
>  <construct-sequence>
HVQLVESGGGLVQAGGSLRLSCAASGSTFILNTMGWYIQAPGKERKLVAAITRRGSSTYYADSVKGRFTISRDNAKNTGYLQMNSLKPEDTAVYFCAAFSYNLGMDYWGQGTKVTVSS

>  <polyreactivity (PSR sort gate)>
high polyreactivity

$$$$
>  <construct-sequence>
QVQLVESGGGLVQAGGSLRLSCAASVYTFYWNAMGWYRQAPGKEREFVASFSGTSTYYADSVKGRFTISRDNAKNTVYLQMNSLKPEDTAVYYCNARLTLGPRKYEYWGQGTQVTVSS

>  <polyreactivity (PSR sort gate)>
low polyreactivity

$$$$
>  <construct-sequence>
QVQLVESGGGLVQAGGSLRLSCAASGRNFFTYAMGWYRQAPGKERELVAAIDRSGTSTNYADSVKGRFTISRDNANNTVYLHMHSLKPEDTAVYYCAARPNPYYDEMDYWGQGTQVTVSS

>  <polyreactivity (PSR sort gate)>
low polyreactivity

$$$$
>  <construct-sequence>
QVQLVESGGRLVQAGGSLRLSSAASGGTFYRNARGWYRQAPGKERELVASISRTGGSTYYADSVKGRFTISRDNAKNTVYLQMNSLKQVDTAVYYCAKKQPRYSYFDNDYWGQGTQVTVSS

>  <polyreactivity (PSR sort gate)>
high polyreactivity

$$$$
>  <construct-sequence>
QVQLVESGGGLVQAGGSHRLSCAASGGTFSNNAMGWYRQAPGKERELVAAISNSGGRTYYADSVKGRFTISRDNAKNTVYLQMNSLKPEDTAVYYCNARYRLMDYWGQGTQVTVSL

>  <polyreactivity (PSR sort gate)>
high polyreactivity

$$$$
>  <construct-sequence>
QVQLVESGGGLVQAGGSHRLSCSGSGFSLTLNAMGWYRQAPGKERELVAAISGNGGRTYYADSVKGRFTISRDNAKNTVYLQMNSLKPEDTAVYYCAARYTRTPSDCSTRKFGYGYWGQRTQVTVSS

>  <polyreactivity (PSR sort gate)>
high polyreactivity

$$$$
>  <construct-sequence>
QVQLVESGGGLVQAGGSLRLSCAASGSIFYYNAMGWYRQAPGKERELVATITQSGGGRTYYADSVKGRFTISRDNAKNTVYLQMNSLKPEDTAVYYCAAKPDKYKSYRYGYWGQGTQVTVSS

>  <polyreactivity (PSR sort gate)>
low polyreactivity

$$$$
>  <construct-sequence>
QVQLVESGGGLVQAGGSLRLSCAASGSTYEIYAMGWYRQAPGKDRELVAAISSGGSTNYADSVKGRFTISRDNAKNTVYLQMNSLKPEDTAVYYCVYAIQFDYWGQGTQVTVSS

>  <polyreactivity (PSR sort gate)>
low polyreactivity

$$$$
>  <construct-sequence>
QVQLVESVGGLVQAGGSLRLSCAASGRTFDYYALGWYRQAPGKERELVAAISSSGGRTYYADSVKGRFTISRDNAKNTVYLQMNSLKPEDTAVYYCNAVVSRNYEYWGQGTQVTVSS

>  <polyreactivity (PSR sort gate)>
high polyreactivity

$$$$
